These measurements were taken from ChEMBL document CHEMBL6127119.

System: Acinetobacter baumannii
protocol summary: Antibacterial activity against Carbapenem-resistant Acinetobacter baumannii clinical isolate incubated for 16 to 24 hrs by CLSI based broth microdilution method
Type: functional
measurement setup: time 16-24 hrs
Consider the following compounds and their measured MIC readings.
// note: answer is a bare numeric in µg/mL

1) CC(C)C[C@@H](N)C(=O)N[C@H]1C(=O)N[C@@H](CC(N)=O)C(=O)N[C@H]2C(=O)N[C@H]3C(=O)N[C@H](C(=O)N[C@H](C(=O)NCc4ccc(-c5ccc(CN)cc5)cc4)c4cc(O)cc(O)c4-c4cc3ccc4O)[C@H](O)c3ccc(c(Cl)c3)Oc3cc2cc(c3O[C@@H]2O[C@H](CO)[C@@H](O)[C@H](O)[C@H]2O[C@H]2C[C@](C)(N)[C@H](O)[C@H](C)O2)Oc2ccc(cc2Cl)[C@H]1O; 128

Shifting focus to the compound that follows.
Consider CC(C)C[C@@H](N)C(=O)N[C@H]1C(=O)N[C@@H](CC(N)=O)C(=O)N[C@H]2C(=O)N[C@H]3C(=O)N[C@H](C(=O)N[C@H](C(=O)NCc4ccc(-c5ccc(CNC(=N)N)cc5)cc4)c4cc(O)cc(O)c4-c4cc3ccc4O)[C@H](O)c3ccc(c(Cl)c3)Oc3cc2cc(c3O[C@@H]2O[C@H](CO)[C@@H](O)[C@H](O)[C@H]2O[C@H]2C[C@](C)(N)[C@H](O)[C@H](C)O2)Oc2ccc(cc2Cl)[C@H]1O . Its measured MIC is 64
